- System: HaCaT
- protocol text: Antiproliferative activity against human HaCaT cells after 24 hrs by BrdU incorporation assay
- Format: functional, cell-based
Calls of active or inactive are those of the source. The rule behind the calls is not given here.
Write down one outcome, taken from active, inactive

What did the test return for CCCOCCc1cc(-c2ccc(S(C)(=O)=O)cc2)n(-c2ccc(F)c(F)c2)c1C ?
active

Continue with CCCOCCc1cc(-c2ccc(S(C)(=O)=O)cc2)n(-c2cccc(F)c2)c1C
inactive

Further, for Cc1c(CCOCCF)cc(-c2ccc(S(C)(=O)=O)cc2)n1-c1cccc(F)c1 ?
active

Next: Cc1c(CCOCCF)cc(-c2ccc(S(C)(=O)=O)cc2)n1-c1ccc(F)c(F)c1
active

Cool, now Cc1c(CCOCCCF)cc(-c2ccc(S(C)(=O)=O)cc2)n1-c1cccc(F)c1
inactive

For Cc1c(CCOCCF)cc(-c2ccc(S(C)(=O)=O)cc2)n1-c1ccc(F)cc1 then?
active

Same read-out for Cc1c(CCOCCCF)cc(-c2ccc(S(C)(=O)=O)cc2)n1-c1ccc(F)c(F)c1 ?
active

Try this compound next: Cc1c(CCOCCCF)cc(-c2ccc(S(C)(=O)=O)cc2)n1-c1ccc(F)cc1
active
